I'd be grateful if you could share measured Cell-based functional assay (EC50, nM) for these entries.
assayed-system: human PD-1 on PD-1 Effector Cell Line (Genscript, GS-J2/PD-1) (human, UniProt Q15116 25-288)
Sequence (Q15116 25-288): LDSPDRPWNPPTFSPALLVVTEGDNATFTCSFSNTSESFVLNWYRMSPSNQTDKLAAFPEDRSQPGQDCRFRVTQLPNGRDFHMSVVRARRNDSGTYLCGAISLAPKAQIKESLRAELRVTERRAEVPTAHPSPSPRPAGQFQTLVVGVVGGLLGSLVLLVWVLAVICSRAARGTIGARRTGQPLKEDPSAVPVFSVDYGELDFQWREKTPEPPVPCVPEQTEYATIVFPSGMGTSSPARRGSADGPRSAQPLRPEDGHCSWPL
test-method-notes: cell-based or functional assay
Field: value (include unit after the number)

Name the recorded Cell-based functional assay (EC50, nM) for chimeric D2H3 antibody (antibody, human IgG1, kappa, V domains shown, Mouse variable domains cloned in frame to human IgG1 and kappa constant regions; also called chD2H3) VH: EVQLQQSGTVLARPGASVKMSCKSSGYTFTNYWMHWVKQRPGQGLEWIGAIFPRNSETNYNQKFKAKAKLTAVTSASTAYMEVSSLTSEDSAVYFCTRNRYGLDYWGQGTSVTVSS VL: DIVLTQSPGFLAVSLGQRATISCRASESVSLHGTRLMHWYHQKPGQPPKLLISLGSNLESGVPARFSGSGSETDFTLNIHPVEEEDAATYFCQQSIEDPWTFGGGTKLEIKR .
5.36 nM

Moving on to the next binder: huD2A4-V6 (antibody, human IgG1, kappa, V domains shown, Humanized D2A4, human IgG1/kappa) VH: EVQLVESGGGLVQPGGSLRLSCAASGFTFSSYTMSWVRQAPGKGLEWVSTISGGGSNTYYPDSVKGRFTISRDNSKNTLYLQMNSLRAEDTAVYYCARQAFYSNYWYFDVWGKGTTVTVSS VL: DIQMTQSPSSVSASVGDRVTITCLASQTIGTWLAWYQQKPGKAPKLLIYAATSLADGVPSRFSGSGSGTDFTLTISSLQPEDFATYYCQQVSSIPWTFGGGTKVEIKR
7.6 nM

Try this binder next: mouse anti-PD-1 monoclonal antibody D2A4 (antibody, V domains shown, Mouse antibody purified from a hybridoma; also called Mouse D2A4; mouse D2A4) VH: EVKLVESGGGLVKPGGSLKLSCAASGFTFSSYTMSWVRQTPAKRLEWVATISGGGSNTYYPDSVKGRFTISRDNARNTLYLQMSSLRSEDTAMYYCARQAFYSNYWYFDVWGAGTTVTVSS VL: DIQMTQSPASQSASLGESVTITCLASQTIGTWLAWYQQTPGKSPQLLIYAATSLADGVPSRFSGSGSGTKFSFKISSLQAEDFASYYCQQVSSIPWTFGGGTKLEIR
6.18 nM

Same for huD2H3-V14 (antibody, human IgG1, kappa, V domains shown, Humanized D2H3, human IgG1/kappa) VH: EVQLVQSGAEVKKPGSSVKVSCKASGYTFTNYWMHWVRQAPGQGLEWMGAIFPRNSETNYNQKFKARVTITADESTSTAYMELSSLRSEDTAVYYCTRNRYGLDYWGQGTLVTVSS VL: DIVMTQSPDSLAVSLGERATINCRASESVSLHGTRLMHWYQQKPGQPPKLLIYLGSNLESGVPDRFSGSGSGTDFTLTISSLQAEDVAVYYCQQSIEDPWTFGQGTKLEIKR
7.11 nM

And then mouse anti-PD-1 monoclonal antibody D2H3 (antibody, V domains shown, Mouse antibody purified from a hybridoma; also called Mouse D2H3; mouse D2H3) VH: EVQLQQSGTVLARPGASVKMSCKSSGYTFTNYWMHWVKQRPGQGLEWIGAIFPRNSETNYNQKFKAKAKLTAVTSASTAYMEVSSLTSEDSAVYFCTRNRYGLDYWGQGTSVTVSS VL: DIVLTQSPGFLAVSLGQRATISCRASESVSLHGTRLMHWYHQKPGQPPKLLISLGSNLESGVPARFSGSGSETDFTLNIHPVEEEDAATYFCQQSIEDPWTFGGGTKLEIK , what is it?
8.48 nM

Lookup chimeric D2A4 antibody (antibody, human IgG1, kappa, V domains shown, Mouse variable domains cloned in frame to human IgG1 and kappa constant regions; also called chD2A4; ChD2A4) VH: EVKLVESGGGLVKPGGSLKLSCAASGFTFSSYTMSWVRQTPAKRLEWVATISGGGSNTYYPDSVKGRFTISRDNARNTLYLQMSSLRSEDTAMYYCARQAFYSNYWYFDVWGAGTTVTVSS VL: DIQMTQSPASQSASLGESVTITCLASQTIGTWLAWYQQTPGKSPQLLIYAATSLADGVPSRFSGSGSGTKFSFKISSLQAEDFASYYCQQVSSIPWTFGGGTKLEIRR
9.46 nM
